Ref: patent US20240076386A1

testedSystem: T1, human E-selectin extracellular domain with 10 His purification tail (human, UniProt P16581 22-556)
T1 construct: also called soluable human E-selectin extracellular domain; rhE-Selectin
T1 sequence: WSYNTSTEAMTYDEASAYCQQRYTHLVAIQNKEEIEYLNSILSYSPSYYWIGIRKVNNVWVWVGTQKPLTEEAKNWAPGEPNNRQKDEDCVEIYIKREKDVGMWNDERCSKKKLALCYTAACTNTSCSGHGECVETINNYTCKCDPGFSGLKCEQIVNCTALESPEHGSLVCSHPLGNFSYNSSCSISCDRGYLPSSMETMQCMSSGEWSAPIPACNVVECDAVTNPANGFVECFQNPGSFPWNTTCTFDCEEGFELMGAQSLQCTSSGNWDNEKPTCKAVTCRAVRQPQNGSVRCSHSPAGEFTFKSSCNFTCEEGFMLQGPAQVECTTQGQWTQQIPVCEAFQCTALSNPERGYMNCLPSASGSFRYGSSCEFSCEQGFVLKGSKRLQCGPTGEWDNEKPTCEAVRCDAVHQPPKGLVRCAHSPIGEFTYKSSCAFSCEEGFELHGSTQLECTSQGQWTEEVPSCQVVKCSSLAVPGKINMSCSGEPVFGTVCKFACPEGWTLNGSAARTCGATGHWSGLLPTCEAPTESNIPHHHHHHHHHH
experimentSummary: SPR, antibody captured, E-selectin analyte

binder: anti-E-selectin antibody 0158 chimera (antibody, human IgG1, kappa, V domains shown, rat VH/VL on effector-null human IgG1 and human kappa) VH: QVQLKESGPGLVQPSETLSLTCTVSGFSISTYNVHWLRQPPGKGLEWMGMMWSGGSPDYNSALKSRLSISRDTSKNQVFLKMNSLQSEDTTTYYCARWGGGFDYWGQGVMVTVSS VL: DIVLTQSPTTLSVTPGETVSLSCRASHSIGTNLHWYQQKTNESPRLLIKFTSQSISGIPSRFSASGSGTDFTLNINNVEFDDVSSYFCQQTQSWPLTFGSGTKLEIKR
koff (s⁻¹): 0.00175
--
binder: anti-E-selectin antibody 0170 chimera (antibody, human IgG1, kappa, V domains shown, rat VH/VL on effector-null human IgG1 and human kappa) VH: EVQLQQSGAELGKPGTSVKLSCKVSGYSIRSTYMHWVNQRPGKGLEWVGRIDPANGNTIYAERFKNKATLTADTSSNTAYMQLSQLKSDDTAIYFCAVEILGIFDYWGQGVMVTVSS VL: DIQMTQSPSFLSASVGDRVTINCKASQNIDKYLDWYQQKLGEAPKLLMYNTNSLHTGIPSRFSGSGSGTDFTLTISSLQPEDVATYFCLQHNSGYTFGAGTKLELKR
koff (s⁻¹): 0.0549
--
binder: anti-E-selectin antibody 0159 chimera (antibody, human IgG1, kappa, V domains shown, rat VH/VL on effector-null human IgG1 and human kappa) VH: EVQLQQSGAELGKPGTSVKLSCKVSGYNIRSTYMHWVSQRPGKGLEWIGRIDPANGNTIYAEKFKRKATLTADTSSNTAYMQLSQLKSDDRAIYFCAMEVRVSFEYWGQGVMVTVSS VL: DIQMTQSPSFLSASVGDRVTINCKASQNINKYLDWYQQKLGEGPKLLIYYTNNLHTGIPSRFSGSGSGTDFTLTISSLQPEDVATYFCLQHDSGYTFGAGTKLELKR
koff (s⁻¹): 0.0371
